- test-system: SALL4 ZFC4 R900W (HT-SELEX) (Mus musculus, UniProt Q8BX22 870-940, R900W)
- Sequence: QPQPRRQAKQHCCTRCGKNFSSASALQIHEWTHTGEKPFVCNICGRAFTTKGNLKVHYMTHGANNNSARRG
- test-details: HT-SELEX; high values mean tight binding
- recorded-conditions: protein: recombinant; vector His6-GST; dsDNA, one strand shown
Is binding signal at least 0.8 fold-change vs cycle 0? Then satisfied. If not, not satisfied.

Would you please look over these solved cases?
residue-codes: CCTCTA
test-system: SALL4 ZFC4 R900W (HT-SELEX) (Mus musculus, UniProt Q8BX22 870-940, R900W)
qualitative-label: satisfied

residue-codes: CCAAGG
test-system: SALL4 ZFC4 R900W (HT-SELEX) (Mus musculus, UniProt Q8BX22 870-940, R900W)
qualitative-label: not satisfied

residue-codes: GCAGGC
test-system: SALL4 ZFC4 R900W (HT-SELEX) (Mus musculus, UniProt Q8BX22 870-940, R900W)
qualitative-label: not satisfied

residue-codes: GAGCTC
test-system: SALL4 ZFC4 R900W (HT-SELEX) (Mus musculus, UniProt Q8BX22 870-940, R900W)
qualitative-label: not satisfied

residue-codes: AAGCTT
test-system: SALL4 ZFC4 R900W (HT-SELEX) (Mus musculus, UniProt Q8BX22 870-940, R900W)
qualitative-label: satisfied

residue-codes: AAAGAC
test-system: SALL4 ZFC4 R900W (HT-SELEX) (Mus musculus, UniProt Q8BX22 870-940, R900W)
qualitative-label: satisfied

residue-codes: CCAACC
test-system: SALL4 ZFC4 R900W (HT-SELEX) (Mus musculus, UniProt Q8BX22 870-940, R900W)
qualitative-label: not satisfied

residue-codes: GAATGC
test-system: SALL4 ZFC4 R900W (HT-SELEX) (Mus musculus, UniProt Q8BX22 870-940, R900W)
qualitative-label: not satisfied

residue-codes: GGACCA
test-system: SALL4 ZFC4 R900W (HT-SELEX) (Mus musculus, UniProt Q8BX22 870-940, R900W)
qualitative-label: not satisfied

residue-codes: CAGTGG
test-system: SALL4 ZFC4 R900W (HT-SELEX) (Mus musculus, UniProt Q8BX22 870-940, R900W)
qualitative-label: not satisfied

Problem: Could you tell me if the measured binding signal of GCAAGA reaches 0.8 fold-change vs cycle 0 or more?
Solution: not satisfied

Problem: For this sequence, is measured binding signal 0.8 fold-change vs cycle 0 or higher? GACAGC
Solution: not satisfied

Problem: State whether the measured binding signal reaches 0.8 fold-change vs cycle 0, counting equality as reaching it, for CTTCCA
Solution: satisfied

Problem: Hi, just wondering whether ATAAAA shows binding signal of 0.8 fold-change vs cycle 0 or higher.
Solution: satisfied

Problem: Test whether the sequence ACCCGC records binding signal of 0.8 fold-change vs cycle 0 or higher.
Solution: not satisfied

Problem: Please tell me: is the sequence AAGGAA at or over 0.8 fold-change vs cycle 0 in terms of binding signal?
Solution: satisfied

Problem: Is it the case that CTTAAA has binding signal reaching or exceeding 0.8 fold-change vs cycle 0?
Solution: satisfied

Problem: binding signal >= 0.8 fold-change vs cycle 0 for TGATCA ?
Solution: satisfied

Problem: Check this sequence for binding signal at or above 0.8 fold-change vs cycle 0: CGGTTC
Solution: not satisfied
